Target: T1, human GPC3 on CHO-K1-human GPC3 cells (clone CHOK1-hGPC3.2B5) (human, UniProt P51654 25-554)
T1 construct: whole, on cells; Stably transfected CHO-K1 clone 2B5
Assay: FACS on CHOK1-hGPC3.2B5 cells;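 further: flow cytometry binding of chimeric antibodies to the cells, read out as mean fluorescence intensity, with the half-maximal concentration derived by curve fitting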
readout_label: Max MFI (MFI)

1) F1.42.8 human-murine chimeric antibody (antibody, human IgG1, kappa, V domains shown) VH: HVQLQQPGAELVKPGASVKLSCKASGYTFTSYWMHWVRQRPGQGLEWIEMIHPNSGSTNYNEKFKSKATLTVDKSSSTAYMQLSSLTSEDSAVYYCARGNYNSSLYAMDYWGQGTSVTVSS VL: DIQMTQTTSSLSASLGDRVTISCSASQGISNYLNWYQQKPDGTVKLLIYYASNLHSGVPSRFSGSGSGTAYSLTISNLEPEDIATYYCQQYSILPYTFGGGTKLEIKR; 9420
2) F3.38.7 human-murine chimeric antibody (antibody, human IgG1, kappa, V domains shown) VH: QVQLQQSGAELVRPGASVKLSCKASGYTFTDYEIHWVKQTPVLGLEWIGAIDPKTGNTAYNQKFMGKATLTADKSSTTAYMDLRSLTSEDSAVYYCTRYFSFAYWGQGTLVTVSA VL: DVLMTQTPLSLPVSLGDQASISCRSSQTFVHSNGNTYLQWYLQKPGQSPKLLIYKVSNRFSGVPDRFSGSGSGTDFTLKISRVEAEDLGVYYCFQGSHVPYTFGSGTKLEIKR; 16200
3) F1.120.16 human-murine chimeric antibody (antibody, human IgG1, kappa, V domains shown) VH: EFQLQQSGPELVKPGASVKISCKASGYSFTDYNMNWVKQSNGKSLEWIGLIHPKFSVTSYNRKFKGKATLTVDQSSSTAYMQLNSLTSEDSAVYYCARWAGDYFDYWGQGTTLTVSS VL: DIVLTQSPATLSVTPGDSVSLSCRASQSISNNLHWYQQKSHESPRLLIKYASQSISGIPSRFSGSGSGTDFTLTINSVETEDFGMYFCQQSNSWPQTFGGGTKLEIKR; 9730
